Molecular target: hSLO1 (Homo sapiens)
Sequence (Q12791 whole entry): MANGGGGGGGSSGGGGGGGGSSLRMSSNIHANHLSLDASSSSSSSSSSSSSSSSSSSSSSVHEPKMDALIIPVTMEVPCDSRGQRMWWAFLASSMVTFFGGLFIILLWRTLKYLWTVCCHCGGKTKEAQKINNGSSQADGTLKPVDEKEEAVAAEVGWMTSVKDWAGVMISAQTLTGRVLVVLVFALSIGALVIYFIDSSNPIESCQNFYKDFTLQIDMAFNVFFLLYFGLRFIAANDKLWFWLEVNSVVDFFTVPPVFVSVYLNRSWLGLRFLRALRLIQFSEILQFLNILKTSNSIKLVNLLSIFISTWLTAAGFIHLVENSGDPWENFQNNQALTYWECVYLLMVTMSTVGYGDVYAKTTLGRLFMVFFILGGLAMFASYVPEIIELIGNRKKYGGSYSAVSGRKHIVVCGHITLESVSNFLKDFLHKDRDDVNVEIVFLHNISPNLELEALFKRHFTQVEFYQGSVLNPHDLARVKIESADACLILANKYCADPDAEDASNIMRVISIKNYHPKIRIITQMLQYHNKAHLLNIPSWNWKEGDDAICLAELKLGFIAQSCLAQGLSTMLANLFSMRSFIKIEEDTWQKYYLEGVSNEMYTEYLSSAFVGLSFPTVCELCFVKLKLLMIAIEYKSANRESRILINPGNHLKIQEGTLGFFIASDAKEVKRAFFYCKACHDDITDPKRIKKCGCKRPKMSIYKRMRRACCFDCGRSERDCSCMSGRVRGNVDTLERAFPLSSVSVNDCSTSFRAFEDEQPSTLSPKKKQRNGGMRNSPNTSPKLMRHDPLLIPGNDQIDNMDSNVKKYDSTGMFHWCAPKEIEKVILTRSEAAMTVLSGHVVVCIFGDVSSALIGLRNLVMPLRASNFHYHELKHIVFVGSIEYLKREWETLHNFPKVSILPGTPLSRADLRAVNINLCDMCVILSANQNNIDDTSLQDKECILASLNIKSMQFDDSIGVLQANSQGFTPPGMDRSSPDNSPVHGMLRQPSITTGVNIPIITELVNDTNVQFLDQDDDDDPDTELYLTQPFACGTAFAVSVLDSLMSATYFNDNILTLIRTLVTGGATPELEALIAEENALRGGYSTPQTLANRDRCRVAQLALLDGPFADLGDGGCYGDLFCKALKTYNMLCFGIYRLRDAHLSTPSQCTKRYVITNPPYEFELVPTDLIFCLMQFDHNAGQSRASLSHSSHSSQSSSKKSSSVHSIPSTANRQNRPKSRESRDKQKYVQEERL
Test: SLO1 inhibition in HEK cells
Experimental: HEK293 cells were transfected with the bicistronic vector pBUD-CE4.1 containing the genes of interest and a gene conferring antibiotic resistance. […] Currents in HEK293 cells were measured in the whole-cell patch-clamp configuration with an Axopatch 200B amplifier, digitized with a Digidata 1440A, and interfaced with Clampex 10.6.0.13 (Molecular Devices). […]
pIC50: −log10 of the molar value.
Below, each entry is listed alongside its reported pIC50.
Quantity Measured: pIC50

Compound: O=C(CCCS(=O)(=O)c1ccc(Cl)cc1)N1CCC(Oc2nc3ccccc3s2)CC1
Quantity Measured: pIC50
Recorded Measurement: 4.47
--
Compound: O=C(c1ccc(OCc2nc(C3CC3)cs2)cc1)N1CCN(c2ccc(C(F)(F)F)cn2)CC1
Quantity Measured: pIC50
Recorded Measurement: 5.20
--
Compound: Cc1cc(Cl)cc2sc(OC3CCN(C(=O)CCCS(=O)(=O)c4cccc(Br)c4)CC3F)nc12 (stereo not drawn)
Quantity Measured: pIC50
Recorded Measurement: 3.96

###

target: CYP2D6 (Homo sapiens, UniProt P10635); assay: CYP450 inhibition; format: in vitro ADME; conditions: read-out: CYP450 Inhibition, 2D6
Sequence (P10635 whole entry, species assumed): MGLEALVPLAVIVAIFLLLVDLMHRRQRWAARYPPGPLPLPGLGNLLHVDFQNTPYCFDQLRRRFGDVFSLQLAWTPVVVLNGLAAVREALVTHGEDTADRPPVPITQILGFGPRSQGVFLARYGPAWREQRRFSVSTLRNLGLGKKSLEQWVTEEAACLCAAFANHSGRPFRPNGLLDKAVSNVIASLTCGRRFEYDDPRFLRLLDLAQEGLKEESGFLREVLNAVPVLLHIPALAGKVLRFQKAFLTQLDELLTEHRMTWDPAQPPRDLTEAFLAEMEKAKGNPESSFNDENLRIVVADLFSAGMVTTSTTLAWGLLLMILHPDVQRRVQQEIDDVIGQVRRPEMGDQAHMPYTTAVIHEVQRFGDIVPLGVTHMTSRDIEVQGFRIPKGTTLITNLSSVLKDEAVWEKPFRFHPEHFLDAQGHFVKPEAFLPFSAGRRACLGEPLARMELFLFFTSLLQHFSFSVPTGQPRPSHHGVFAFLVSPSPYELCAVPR
pIC50: −log10 of the molar value.
Quantity Measured: pIC50

Query Smiles: Cc1cc(Cl)cc2sc(O[C@H]3CCN(C(=O)CCCS(=O)(=O)c4cccc(Br)c4)C[C@H]3F)nc12
Quantity Measured: pIC50
Recorded Measurement: < 4.52
//
Query Smiles: O=C(c1ccc(OCc2ccc(OC(F)(F)F)cc2)cc1)N1CCN(c2ccc(C(F)(F)F)cn2)CC1
Quantity Measured: pIC50
Recorded Measurement: < 4.52

###

assay: Drug concentrations in compartments of the murine FRT after IP dosing; assay type: in vivo, mouse; details: mouse, ovary; female mice, 10 mg/kg IP, 24 hr; read-out: Ovary concentration

Query Smiles: O=C(c1ccc(OCc2ccc(OC(F)(F)F)cc2)cc1)N1CCN(c2ccc(C(F)(F)F)cn2)CC1
concentration at 24 hr / nM: 1970

###

molecular target: hERG (Homo sapiens); construct: expressed in transfected cells; assay: hERG patch clamp electrophysiology (HEK-293-hERG); assay type: cell-based; conditions: whole-cell patch clamp, HEK-293-hERG
Sequence (Q12809 whole entry): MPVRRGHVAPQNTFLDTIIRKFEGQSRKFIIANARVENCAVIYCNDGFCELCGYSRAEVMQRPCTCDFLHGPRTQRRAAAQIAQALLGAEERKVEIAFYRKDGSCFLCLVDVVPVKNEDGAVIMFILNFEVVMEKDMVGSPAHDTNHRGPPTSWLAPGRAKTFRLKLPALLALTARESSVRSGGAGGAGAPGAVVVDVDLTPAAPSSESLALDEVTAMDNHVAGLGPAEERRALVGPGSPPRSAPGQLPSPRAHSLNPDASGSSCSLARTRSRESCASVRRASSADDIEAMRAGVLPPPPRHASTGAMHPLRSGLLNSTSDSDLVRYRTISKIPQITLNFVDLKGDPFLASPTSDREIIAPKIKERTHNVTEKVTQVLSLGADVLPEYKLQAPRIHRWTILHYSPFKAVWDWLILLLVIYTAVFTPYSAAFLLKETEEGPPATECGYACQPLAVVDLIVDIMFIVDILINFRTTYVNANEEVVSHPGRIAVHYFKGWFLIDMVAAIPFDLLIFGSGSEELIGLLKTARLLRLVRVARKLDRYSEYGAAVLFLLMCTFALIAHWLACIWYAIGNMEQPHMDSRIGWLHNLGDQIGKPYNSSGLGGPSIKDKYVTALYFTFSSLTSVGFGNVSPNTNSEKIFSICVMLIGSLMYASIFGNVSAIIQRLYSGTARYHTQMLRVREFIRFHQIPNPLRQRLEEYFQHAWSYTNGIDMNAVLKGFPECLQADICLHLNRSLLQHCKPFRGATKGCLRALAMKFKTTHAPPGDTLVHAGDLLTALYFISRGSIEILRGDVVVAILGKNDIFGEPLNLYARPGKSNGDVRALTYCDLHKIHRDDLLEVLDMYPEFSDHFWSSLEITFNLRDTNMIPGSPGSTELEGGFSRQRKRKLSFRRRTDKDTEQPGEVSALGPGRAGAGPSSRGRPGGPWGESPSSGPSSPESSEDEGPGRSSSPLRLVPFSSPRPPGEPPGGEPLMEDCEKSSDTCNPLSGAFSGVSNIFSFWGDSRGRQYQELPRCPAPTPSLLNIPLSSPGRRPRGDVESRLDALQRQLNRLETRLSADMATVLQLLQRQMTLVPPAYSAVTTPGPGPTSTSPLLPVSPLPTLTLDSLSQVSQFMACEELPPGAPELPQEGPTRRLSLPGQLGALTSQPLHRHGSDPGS
pIC50: −log10 of the molar value.
// label 0 strictly below 5 in pIC50; label 1 otherwise

Compound: O=C(c1ccc(OCc2nc(C3CC3)cs2)cc1)N1CCN(c2ccc(C(F)(F)F)cn2)CC1
Assigned Category: label 1

Compound: Cc1cc(Cl)cc2sc(OC3CCN(C(=O)CCCS(=O)(=O)c4cccc(Br)c4)CC3F)nc12 (stereo not shown)
Assigned Category: label 0

Compound: O=C(CCCS(=O)(=O)c1ccc(Cl)cc1)N1CCC(Oc2nc3ccccc3s2)CC1
Assigned Category: label 1

Compound: Cc1cc(Cl)cc2sc(O[C@H]3CCN(C(=O)CCCS(=O)(=O)c4cccc(Br)c4)C[C@@H]3F)nc12
Assigned Category: label 0

Compound: O=C(c1ccc(OCc2ccc(OC(F)(F)F)cc2)cc1)N1CCN(c2ccc(C(F)(F)F)cn2)CC1
Assigned Category: label 0

Compound: Cc1cc(Cl)cc2sc(O[C@@H]3CCN(C(=O)CCCS(=O)(=O)c4cccc(Br)c4)C[C@H]3F)nc12
Assigned Category: label 0

All values here come from paper PMC12441834.
